Reported pKi values are given for each entry in this list.
Target protein (sequence): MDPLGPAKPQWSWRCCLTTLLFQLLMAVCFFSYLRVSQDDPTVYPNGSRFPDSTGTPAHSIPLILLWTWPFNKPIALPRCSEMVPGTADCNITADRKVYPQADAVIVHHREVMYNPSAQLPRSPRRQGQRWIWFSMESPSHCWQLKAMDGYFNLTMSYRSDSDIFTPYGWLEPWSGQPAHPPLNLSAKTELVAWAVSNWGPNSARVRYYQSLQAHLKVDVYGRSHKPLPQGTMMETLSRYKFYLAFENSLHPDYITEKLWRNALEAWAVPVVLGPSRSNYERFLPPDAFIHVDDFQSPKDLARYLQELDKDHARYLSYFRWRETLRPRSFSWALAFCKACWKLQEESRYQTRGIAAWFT
The meaning of pKi here: minus log10 of the concentration in molar units.

The examples below pair each entry with its known result.
# molecule, pKi
measured = [
    ("Nc1nc2c(ncn2C2O[C@H](COP(=O)(O)OP(=O)(O)OCc3cn(CCCC(=O)NC(Cc4ccccc4)c4ccccc4)nn3)[C@@H](O)[C@H]2O)c(=O)[nH]1 (stereo not given in full)", 5.97),
    ("Nc1nc(O)c2ncn(C3O[C@H](COP(=O)(O)OP(=O)(O)OCc4cn(CCCCC(=O)NC(Cc5ccccc5)c5ccccc5)nn4)[C@@H](O)[C@H]3O)c2n1 (stereo not given in full)", 6.42),
    ("Nc1nc2c(ncn2C2O[C@H](COP(=O)(O)OP(=O)(O)OCc3cn(CCC(=O)NCc4cccc5ccccc45)nn3)[C@@H](O)[C@H]2O)c(=O)[nH]1 (stereo not given in full)", 6.05),
]

Query block: Entry under review: Nc1nc(O)c2ncn(C3O[C@H](COP(=O)(O)OP(=O)(O)OCc4cn(CC(=O)NC(Cc5ccccc5)c5ccccc5)nn4)[C@@H](O)[C@H]3O)c2n1 (stereo not given in full) . Reported pKi?
Result block: 6.36

Query block: Entry under review: Nc1nc(O)c2ncn(C3O[C@H](COP(=O)(O)OP(=O)(O)OCc4cn(CCCCC(=O)NC5=CC6C(=O)c7ccccc7C(=O)C6C=C5)nn4)[C@@H](O)[C@H]3O)c2n1 (stereo not given in full) . Reported pKi?
Result block: 6.29
